Target: T1, biotinylated synthetic human Amyloid beta 1-42 peptide (human, UniProt P05067 672-713, biotinylated (N-terminal biotin in Example 4))
T1 construct: domain: Amyloid beta 1-42 peptide; Numbers 1-42 count on the Amyloid beta peptide, not on APP; also called biotinylated human Amyloid beta 1-42; N-terminal biotin Abeta 1-42
T1 sequence (P05067 672-713 limits assumed): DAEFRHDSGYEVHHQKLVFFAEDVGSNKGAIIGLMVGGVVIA
Assay: HTRF epitope competition; purified scFv titrated; competitor Abet0144-GL IgG1-TM
Procedure: Two thousand and twenty four scFv chosen at random from selection rounds 3 and 4 of the targeted mutagenesis approach described in section 1.2 were expressed in bacteria to produce unpurified periplasmic scFv. One thousand six hundred and seventy two scFv, randomly selected from selection rounds 9 to 11, were screened in an epitope competition assay as described in section 1.3. Where the assay was performed more than once, the absolute range of IC₅₀ values is provided.
# maps each entry to its pIC50
Recall that pIC50 is obtained by taking minus log10 of the concentration measured in molar.

These recorded examples may help you get a feel for the data.
Abet0323b scFv (scFv, V domains shown, not shown: small tags and cut ends, Purified scFv expressed in E. coli) VH: EVQLLESGGGLVQPGGSLRLSCAASTSTFQEDTMWWVRQAPGKGLEWVSVIGPNPKNNAYADSVKGRFTISRDNSKNTLYLQMNSLRAEDTAVYYCAREWMDHSRPYYYYGMDVWGQGTLVTVSS VL: SYELTQPPSVSVSPGQTASITCSGHNLEDKFASWYQQKPGQSPVLVIYRDDKRPSGVPERFSASNSGHTATLTISGTQATDEADYYCSSQDTVTRVFGGGTKLIVL    9.17
Abet0322b scFv (scFv, V domains shown, not shown: small tags and cut ends, Purified scFv expressed in E. coli) VH: EVQLLESGGGLVQPGGSLRLSCAASNEEFQYNPMWWVRQAPGKGLEWVSVIGSSGGATVYADAVKGRFTISRDNSENTLYLQMNSLRAEDTAVYYCAREWMDHSRPYYYYGMDVWGQGTLVTVSS VL: SYELTQPPSVSVSPGQTASITCSGHNLGDKFASWYQQKPGQSPVLVIYRDDKRPSEIPERFSASNSGHTATLTISGTQATDEADYYCSSQDTVTRVFGGGTKLTVL    9.15
Abet0144-GL scFv (scFv, V domains shown, not shown: small tags and cut ends, Purified scFv expressed in E. coli; also called parent clone) VH: EVQLLESGGGLVQPGGSLRLSCAASGFTFSVYTMWWVRQAPGKGLEWVSVIGSSGGTTVYADSVKGRFTISRDNSKNTLYLQMNSLRAEDTAVYYCAREWMDHSRPYYYYGMDVWGQGTLVTVSS VL: SYELTQPPSVSVSPGQTASITCSGHNLEDKFASWYQQKPGQSPVLVIYRDDKRPSGIPERFSASNSGHTATLTISGTQAMDEADYYCQAQDSTTRVFGGGTKLTVL    7.85

Prompt: // lookup pIC50 for Abet0381 scFv (scFv, V domains shown, not shown: small tags and cut ends, Purified scFv expressed in E. coli) VH: EVQLLESGGGLVQPGGSLRLSCAASSPSFPRETMWWVRQAPGKGLEWVSVIGTQPNRLTYADSVKGRFTISRDNSKNTLYLQMNSLRAEDTAVYYCAREWMDHSRPYYYYGIDVWGQGTLVTVSP VL: SYELTQPPSVSASPGQTASITCSGHNLEDKFVSWYQQKPGQSPVLVIYRDDKRPSGIPERFSASNSGHTATLTISGTQATDEANYYCSSQDTVTRAFGGGTKLTVL
Completion: 9.33

Prompt: Quick one: pIC50 of Abet0380 scFv (scFv, V domains shown, not shown: small tags and cut ends, Purified scFv expressed in E. coli) VH: EVQLLESGGGLVQPGGSLRLSCAASMGNFNYQTMWWVRQAPGRGLEWVSVIGKTNENIAYADSVKGRFTISRDNSKNTLYLQMNSLRAEDTAVYYCAREWMDHSRPYYYYGMDVWGQGTLVTVSS VL: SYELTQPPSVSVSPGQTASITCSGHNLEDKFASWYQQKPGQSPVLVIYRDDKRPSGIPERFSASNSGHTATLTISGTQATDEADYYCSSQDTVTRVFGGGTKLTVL ?
Completion: 9.37
